Each recorded value in this set is attributed to ChEMBL document CHEMBL1124314.

# Species: Rattus norvegicus
# TEST_SUMMARY: Biodistribution in rat spleen in the presence of NCAGd/0.01 M lig
# Type: ADME, organism-based
# PROTOCOL_CONDITIONS: in vivo
ENDPOINT_LABEL: ID/organ (%)

OC(CNCCNCC(O)c1ccccc1)c1ccccc1 (centres undefined): 0.135

a. CC(C)(CO)NCCNC(C)(C)CO
b. CC(CO)NCCNC(C)C(C)O (centres undefined)
c. CC(O)C(C)NCCNC(C)C(C)O (centres undefined)
Number of molecules to sort: 3. Sort criterion: ID/organ, ascending. A ranking is expressed here by listing the labels in the requested order.
b, a, c

====

# Organism: Rattus norvegicus
# TEST_SUMMARY: Biodistribution in rat bone in the presence of GdDTPA at 1 hr
# Assay type: ADME, organism-based, Bone element
# PROTOCOL_CONDITIONS: in vivo
ENDPOINT_LABEL: ID/organ (%)
State the answer as a number, implicitly in %.

What measured ID/organ goes with `O=C(O)CN(CCN(CC(=O)O)CC(=O)O)CCN(CC(=O)O)CC(=O)O` ?
0.779

====

# Organism: Rattus norvegicus
# TEST_SUMMARY: Biodistribution in rat kidney in the presence of NCAGd/0.01 M lig
# Type: ADME, organism-based
# PROTOCOL_CONDITIONS: in vivo
ENDPOINT_LABEL: ID/organ (%)

CC(O)C(C)NCCNC(C)C(C)O (centres undefined): 2.87
CC(CO)NCCNC(C)C(C)O (centres undefined): 2.75
CC(C)(CO)NCCNC(C)(C)CO: 2.85
OC(CNCCNCC(O)c1ccccc1)c1ccccc1 (centres undefined): 3.57

====

# Organism: Rattus norvegicus
# TEST_SUMMARY: Biodistribution in rat liver by in the presence of NCAGd/0.01 M lig
# Type: ADME, organism-based
# PROTOCOL_CONDITIONS: in vivo
ENDPOINT_LABEL: ID/organ (%)

CC(O)C(C)NCCNC(C)C(C)O (centres undefined): 28.5
OC(CNCCNCC(O)c1ccccc1)c1ccccc1 (centres undefined): 20.9

P. CC(CO)NCCNC(C)C(C)O (centres undefined)
Q. CC(C)(CO)NCCNC(C)(C)CO
Quick check, higher ID/organ between P and Q ? Reply briefly: the label of your chosen item.
Q

====

# Species on record: Rattus norvegicus
# TEST_SUMMARY: Uptake of [GD] in bone 1 h post injection with 0.01 of the compound
# Assay type: functional, Bone element
Attribute: ID
# number only, unit % dropped from output

Known ID results, listed for orientation:
CC(CO)NCCNC(C)C(C)O (centres undefined): 6.88
O=C(O)CN(CCN(CC(=O)O)CC(=O)O)CCN(CC(=O)O)CC(=O)NCCCP(=O)(O)OP(=O)(O)O: 22.9
O=P(O)(O)C(N(CCN(C(P(=O)(O)O)P(=O)(O)O)C(P(=O)(O)O)P(=O)(O)O)C(P(=O)(O)O)P(=O)(O)O)P(=O)(O)O: 50.1

Now look at this one.
// lookup ID for `CC(C)(CO)NCCNC(C)(C)CO`
7.23

====

# Organism: Rattus norvegicus
# TEST_SUMMARY: Biodistribution in rat heart in the presence of NCAGd/0.01 M lig
# Type: ADME, organism-based
# PROTOCOL_CONDITIONS: in vivo
ENDPOINT_LABEL: ID/organ (%)

CC(CO)NCCNC(C)C(C)O (centres undefined): 0.315
CC(C)(CO)NCCNC(C)(C)CO: 0.28
OC(CNCCNCC(O)c1ccccc1)c1ccccc1 (centres undefined): 0.34
CC(O)C(C)NCCNC(C)C(C)O (centres undefined): 0.295

====

# Species: Rattus norvegicus
# TEST_SUMMARY: Biodistribution in rat bone in the presence of GdDTPA-BDP at 1 hr
# Format: ADME, organism-based, Bone element
# PROTOCOL_CONDITIONS: in vivo
ENDPOINT_LABEL: ID/organ (%)
Respond numerically; units are % and should not be typed.

For the compound `O=C(O)CN(CCN(CC(=O)O)CC(=O)O)CCN(CC(=O)O)CC(=O)O` , what ID/organ is on record?
17.6

====

# Species on record: Rattus norvegicus
# TEST_SUMMARY: Biodistribution in rat bone in the presence of NCAGd/0.01 M lig
# Format: ADME, organism-based, Bone element
# PROTOCOL_CONDITIONS: in vivo
ENDPOINT_LABEL: ID/organ (%)

OC(CNCCNCC(O)c1ccccc1)c1ccccc1 (centres undefined): 56.8
CC(CO)NCCNC(C)C(C)O (centres undefined): 59.6

1. CC(O)C(C)NCCNC(C)C(C)O (centres undefined)
2. CC(C)(CO)NCCNC(C)(C)CO
Which one would you say has the larger ID/organ value: 1 , or 2 ? Label of pick, please.
1
(1: 51.4%, 2: 27.7%)

====

# Species on record: Rattus norvegicus
# TEST_SUMMARY: Biodistribution in rat blood in the presence of NCAGd/0.01 M lig
# Format: ADME, organism-based
# PROTOCOL_CONDITIONS: in vivo
ENDPOINT_LABEL: ID/organ (%)

Answered examples (2):
CC(CO)NCCNC(C)C(C)O (centres undefined): 2.31
OC(CNCCNCC(O)c1ccccc1)c1ccccc1 (centres undefined): 2.35

I. CC(C)(CO)NCCNC(C)(C)CO
II. CC(O)C(C)NCCNC(C)C(C)O (centres undefined)
Input pair: I , II . Output: entry with lower ID/organ. Write down the label attached to your selection.
II
(II: 3.12%, I: 7.25%)

====

# Species on record: Rattus norvegicus
# TEST_SUMMARY: Biodistribution in rat heart in the presence of GdDTPA at 1 hr
# Assay type: ADME, organism-based
# PROTOCOL_CONDITIONS: in vivo
ENDPOINT_LABEL: ID/organ (%)
Just the number in %, nothing appended.

Quick check: ID/organ of `O=C(O)CN(CCN(CC(=O)O)CC(=O)O)CCN(CC(=O)O)CC(=O)O` ?
0.019
